Reported protease stability score is given for each of the following sequences.
Experiment: protease stability score; higher = more stable; yeast display proteolysis, trypsin and chymotrypsin;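 also: relative to predicted unfolded state with 0 unfolded-like and 1 meaning tenfold more protease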
// no unit, no text: just the number

Task: Supply reported protease stability score belonging to this sequence: `HSDEEKSRRATKWFIKIFHTGDEDRFHELADPNTRVIIGDKDFIGREKAVDAIHRIWEHLGIDVYDVEDIRIINGVVEVDTSFHINGRTIKTTTRIEKVNGQWVVDEVHFK`
Output: 1.23

Task: Supply reported protease stability score belonging to this sequence: `SEHDEYAKKVVEIIWKDMLTGDEDKFSEMADPDVRLDIGDKHHHGMEEMTEILTRVYKHIRIEDWRIRDIRHINGKAVVDGHTTIEIGDKRIHRRVELIVIVIDGRLKTLEYRVH`
Output: 1.09

Task: Supply reported protease stability score belonging to this sequence: `DEDEEDMRHALELIYRTFETGDERTTEELMDPHARIDIGEFKLHGREEAVEFYRLLLRKVKNLTIKIHHVEVYGEKITIDGRIDFDGRKRRVIILVEKVDGKWVINEIRVH`
Output: 1.42

Task: Supply reported protease stability score belonging to this sequence: `DEDEEISKRLLKQLIHMLKTGDEDLFWHLFDPDTRLIVGDKEDHGREELAKSIRELWHEIRIERLHLRSIHIIGDFIHLIVRLIRNVNGKKDDINLELIVIKVDGKWRFKEMEIQ`
Output: 1.44

All figures here come from the NTF2 design screens of Basanta et al. (2020).
